# credit: patent US20150045540A1

# EC50 values compiled below
molecular target: Hepatocyte Growth Factor (HGF), human (human, UniProt P14210 32-728); assay: ELISA
Sequence (P14210 32-728): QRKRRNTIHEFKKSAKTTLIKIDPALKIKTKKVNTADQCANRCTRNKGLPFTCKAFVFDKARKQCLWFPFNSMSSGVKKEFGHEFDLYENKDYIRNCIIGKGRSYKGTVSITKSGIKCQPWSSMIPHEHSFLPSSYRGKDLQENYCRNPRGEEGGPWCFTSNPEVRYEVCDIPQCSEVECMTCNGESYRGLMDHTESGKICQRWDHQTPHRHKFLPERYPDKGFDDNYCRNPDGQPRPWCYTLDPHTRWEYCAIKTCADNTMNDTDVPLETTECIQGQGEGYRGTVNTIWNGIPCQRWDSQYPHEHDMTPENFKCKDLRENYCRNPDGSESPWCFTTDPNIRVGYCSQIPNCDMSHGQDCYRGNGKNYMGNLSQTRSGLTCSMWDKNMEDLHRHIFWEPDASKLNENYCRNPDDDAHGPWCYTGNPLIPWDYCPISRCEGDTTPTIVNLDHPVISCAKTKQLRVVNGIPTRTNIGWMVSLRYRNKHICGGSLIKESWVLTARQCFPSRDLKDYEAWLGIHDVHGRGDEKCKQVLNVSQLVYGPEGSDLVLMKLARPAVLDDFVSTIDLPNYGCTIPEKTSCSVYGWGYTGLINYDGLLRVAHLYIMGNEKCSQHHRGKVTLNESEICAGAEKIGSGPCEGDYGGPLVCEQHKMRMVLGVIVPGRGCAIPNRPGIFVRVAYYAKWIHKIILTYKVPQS
Provide only the numeric value, understood in nM.

HC 5/SLC 3 (antibody) chain 1: GQGTLVTVSSASTKGQPVLHQPPAMSSALGTTIRLTCTLRNDHDIGVYSVYWYQQRPGHPPRFLLRYFSQSDKSQGPQVPPRFSGSKDVARNRGYLSISELQPEDEAMYYCAMGARSRCWPRGFQSKHNSVTHVFGSGTQLTVLSQPKATPSVTLFPPSSEELQANKATLVCLMNDFYPGILTVTWKADGTPITQGVEMTTPSKQSNNKYAASSYLSLTPEQWRSRRSYSCQVMHEGSTVEKTVAPAECS chain 2: MSWAPVLLMLFVYCTGCGPQPVLHQPPAMSSALGTTIRLTCTLRNDHDIGVYSVYWYQQRPGHPPRFLLRYFSQSDKSQGPQVPPRFSGSKDVARNRGYLSISVTHVFGSGTQLTVLSQPQVQLVQ    0.064

Quick one: EC50 of HC 2/SLC 8 (antibody) chain 1: GQGTLVTVSSASQPVLHQPPAMSSALGTTIRLTCTLRNDHDIGVYSVYWYQQRPGHPPRFLLRYFSQSDKSQGPQVPPRFSGSKDVARNRGYLSISELQPEDEAMYYCAMGARSRCWPRGFQSKHNSVTHVFGSGTQLTVLSQPKATPSVTLFPPSSEELQANKATLVCLMNDFYPGILTVTWKADGTPITQGVEMTTPSKQSNNKYAASSYLSLTPEQWRSRRSYSCQVMHEGSTVEKTVAPAECS chain 2: MSWAPVLLMLFVYCTGCGPQPVLHQPPAMSSALGTTIRLTCTLRNDHDIGVYSVYWYQQRPGHPPRFLLRYFSQSDKSQGPQVPPRFSGSKDVARNRGYLSISVTHVFGSGTQLTVLSQPKATPSQVQLVQ ?
0.046
